# Test system: HCV Replicon IB
# procedureDetails: HCV replicon assay in Huh-7 cells, genotype 1b (Rluc luciferase readout)
# Assay type: cell-based, hepatitis C virus
# testParameters: Hepatitis C virus, Huh-7, 72 h, HCV1B replicon, Huh-7 cells, 3 days; read-out: EC50_HCV1B_
propertyLabel: pEC50
# log scale: pEC50 equals minus log10 of the concentration in mol/L

Completed entries (count: 5):
{"columns": ["compound", "testTarget", "propertyLabel", "reportedValue"],
 "data": [
  ["Nc1cc(C(=O)NC[C@@H]2CC(F)(F)CCN2)nc2c(C(F)(F)F)cc(OC(F)F)cc12", "HCV Replicon IB", "pEC50", 7.58],
  ["Cc1cc(-c2nnc(NCC3OCCO3)o2)nc2c(OC(C)(C)C)cc(C3CC3)cc12", "HCV Replicon IB", "pEC50", 7.43],
  ["Cc1cc(-c2nnc(NC3CC(O)(C(F)(F)F)C3)o2)nc2c(C(C)(C)C)cc(OCC(F)(F)F)cc12 (stereo not shown)", "HCV Replicon IB", "pEC50", 6.94],
  ["CC(C)(C)c1cc(C2CC2)cc2c(N)cc(C(=O)NCc3ncccn3)nc12", "HCV Replicon IB", "pEC50", 9.09],
  ["Cc1cc(-c2nnc(N[C@H]3C[S@@+]([O-])C3)o2)nc2c(C(C)(C)C)cc(OCC(F)(F)F)cc12", "HCV Replicon IB", "pEC50", 7.72]
]}

Which pEC50 value is on record for Cc1cc(-c2nnc(N[C@H]3C[S@+]([O-])C3)o2)nc2c(C(C)(C)C)cc(OCC(F)(F)F)cc12 ?
7.61

Which pEC50 value is on record for Cc1cc(C(=O)NC[C@@H]2CSCN2)nc2c(C(C)(C)C)cc(C3CC3)cc12 ?
8.13

* * *

# System: HCV Replicon IB
# procedureDetails: HCV replicon assay in Huh-7 cells, genotype 1b (Rluc luciferase readout)
# Format: cell-based, hepatitis C virus
# testParameters: Hepatitis C virus, Huh-7, 72 h, HCV1B replicon, Huh-7 cells, 3 days; read-out: EC50_HCV1B_
Labelling: EC50 reported below 7 nM becomes 1; at or above becomes -1.

{"columns": ["compound", "discreteLabel"],
 "data": [
  ["Cc1cc(-c2nnc(N[C@H]3C[C@@H](O)C3)s2)nc2c(C(C)(C)C)cc(OCC(F)(F)F)cc12 [Compound 518]", -1]
]}

Please check: EC50 for CC[C@@]1(O)CN[C@H](CNC(=O)c2cc(C)c3cc(C4CC4)cc(C(C)(C)C)c3n2)C1 [Compound 430] , strictly under 7 nM or not?
-1

Please check: EC50 for CC(C)(C)c1cc(C2CC2)cc2c(NC(=O)CN)cc(-c3nnc(NCC4OCCO4)o3)nc12 [Compound 361] , strictly under 7 nM or not?
-1

Please check: EC50 for Cc1cc(OC(F)(F)F)c2nc(C(=O)NCc3cnccn3)cc(C)c2c1 [Compound 445] , strictly under 7 nM or not?
-1

Please check: EC50 for CC(C)(C)c1cc(C2CC2)cc2c(N)cc(-c3nnc(Nc4cccc(S(N)(=O)=O)c4)o3)nc12 [Compound 357] , strictly under 7 nM or not?
-1

Please check: EC50 for Cc1cc(-c2nnc(N[C@H]3CC[C@](O)(CF)C3)o2)nc2c(C(C)(C)C)cc(OCC(F)(F)F)cc12 [Compound 491] , strictly under 7 nM or not?
1

Please check: EC50 for Cc1cc(-c2nnc(NCC3OCCS3(=O)=O)o2)nc2c(C(C)(C)C)cc(OCC(F)(F)F)cc12 (stereo not shown) [Compound 483] , strictly under 7 nM or not?
1
